Target or system UniProtKB P10826; metric log10 Kd; compiled from varied reports.
The common logarithm of Kd in nM is what is listed.

Some solved cases for reference:
{"Compound": "CCCOc1c(C(C)(C)C)cc(/C(C)=C/C=C/C(C)=C/C(=O)O)cc1C(C)(C)C", "log10 Kd": 0.00}
{"Compound": "CCOc1c(\\C(CC)=C(F)/C=C/C(C)=C/C(=O)O)cc2c(c1Br)C(C)(C)CC=C2C(C)CC (stereo not drawn)", "log10 Kd": 2.05}
{"Compound": "COCOc1ccc(C#Cc2ccc(C(=O)O)cc2)cc1C(=O)c1ccc(C)cc1", "log10 Kd": 2.69}
{"Compound": "CC1(C)CCC2(SCCCS2)c2cc(/C=C/c3ccc(C(=O)O)cc3)ccc21", "log10 Kd": 1.96}
{"Compound": "CC1(C)CC=C(c2cccs2)c2ccc(C(=O)C=Cc3ccc(C(=O)O)cc3)cc21", "log10 Kd": 2.30}

Exercise: Give reported log10 Kd for COCOC1CCC(C)(C)c2ccc(N=Nc3ccc(C(=O)O)cc3)cc21 (racemic) (UniProtKB P10826)
Key: 2.35

Exercise: Give reported log10 Kd for `C=C(c1ccc(C)cc1)c1cc(C#Cc2ccc(C(=O)O)c(F)c2)ccc1OC(C)C` (UniProtKB P10826)
Key: 2.37

Exercise: Find the measured log10 Kd of `Cc1ccc(N2CCC(C)(C)c3ccc(C#Cc4ccc(C(=O)O)c(F)c4)cc32)cc1` with UniProtKB P10826 as test system.
Key: 1.92

Exercise: Please indicate recorded log10 Kd of `Cc1ccc(C(=O)c2cc(C#Cc3ccc(C(=O)O)cc3)ccc2O)cc1` measured with UniProtKB P10826.
Key: 1.99

Exercise: // fetch log10 Kd; item: `CCOc1c(\C(CC)=C(F)/C=C/C(C)=C/C(=O)O)cc2c(c1Br)C(C)(C)CC=C2C(C)C` ; system: UniProtKB P10826
Key: 1.75

Exercise: Identify measured log10 Kd obtained with UniProtKB P10826 for `Cc1ccc(N2C(=O)CC(C)(C)c3ccc(C#Cc4ccc(C(=O)O)cc4)cc32)cc1` .
Key: 1.23

Exercise: Provide the reported log10 Kd (system: UniProtKB P10826) for `Cc1ccc(N2CCC(C)(C)c3ccc(C#Cc4ccc(C(=O)O)cc4)cc32)cc1`
Key: 0.48

====

Consider the following Kd data for Retinoic acid receptor beta (Homo sapiens), collected from several reports.
Entry rule: numbers only, all in nM.

Exercise: Quickly give me recorded Kd for CC12CCC(C1)C1(C)Oc3ccc(C(O)COc4ccc(C(=O)O)cc4)cc3C21C (stereo not shown)
Key: 230

Exercise: Please give the documented Kd of `C=C(c1ccccc1)c1cc(/C(C)=C/C=C/C(C)=C/C(=O)O)cc(C(C)(C)C)c1`
Key: 3

Exercise: Name the recorded Kd of the molecule listed here: `CC1(C)CCSc2ccc(C#Cc3ccc(C(=O)O)cn3)cc21`
Key: 164

====

Recorded log10 Kd for compounds tested on Retinoic acid receptor beta (Homo sapiens, UniProt P10826), drawn from a number of studies.
Lab note - Kd converted to log10 from values in nM.

Answered examples (5):
{"Compound": "C#Cc1cc(C#Cc2ccc(CC(=O)O)c(F)c2)cc2c1OC(C)(C)CC2(C)C", "log10 Kd": 3.69}
{"Compound": "Cc1ccc(Oc2cc(C#Cc3ccc(C(=O)O)c(F)c3)ccc2C(C)(C)C)cc1", "log10 Kd": 1.00}
{"Compound": "C=C(c1ccc(C)cc1)c1cccc(C#Cc2ccc(C(=O)O)cc2)c1", "log10 Kd": 2.35}
{"Compound": "CCCCOc1c(C(C)(C)C)cc(/C(C)=C/C=C/C(C)=C/C(=O)O)cc1C(C)(C)C", "log10 Kd": 0.70}
{"Compound": "CCOc1c(\\C(=C(F)/C=C/C(C)=C/C(=O)O)C(C)C)cc2c(c1Br)C(C)(C)CC=C2C(C)C", "log10 Kd": 1.57}

Exercise: Entry `CC(C)(C)c1ccc(C#Cc2ccc(C(=O)O)c(F)c2)cc1Oc1ccc(I)cc1` needs its log10 Kd filled in; supply it.
Key: 1.20

Exercise: Name the recorded log10 Kd of the item Cc1ccc(C2=CCCC(C)(C)C2/C=C/C#Cc2ccc(C(=O)O)cc2)cc1 (racemic) in your answer.
Key: 1.38

Exercise: Note down log10 Kd recorded for `Cc1ccc(Oc2cc(/C=C/c3ccc(C(=O)O)cc3)ccc2C(C)(C)C)cc1`
Key: -0.10

Exercise: Tell me log10 Kd reported for `CC1(C)CCSc2ccc(C#Cc3ccc(CCC(=O)O)cc3)cc21`
Key: 3.46

Exercise: For `CC1(C)CCC(=O)c2cc(/C=C/c3ccc(C(=O)O)cc3)ccc21` , write its log10 Kd.
Key: 2.34

Exercise: Supply recorded log10 Kd for `CC(C)(O)/C=C\C1=CCC(C)(C)c2ccc(/C=C/c3ccc(C(=O)O)cc3)cc21` here.
Key: 0.34

Exercise: Output measured log10 Kd for this item: `CC(C)(C)c1ccc(C#Cc2ccc(C(=O)O)cc2)cc1Oc1ccc(C(F)(F)F)cc1`
Key: 1.64
